System Under Test: mouse melanocortin-3 receptor (mouse, UniProt P33033 1-323)
Sequence (P33033 whole entry): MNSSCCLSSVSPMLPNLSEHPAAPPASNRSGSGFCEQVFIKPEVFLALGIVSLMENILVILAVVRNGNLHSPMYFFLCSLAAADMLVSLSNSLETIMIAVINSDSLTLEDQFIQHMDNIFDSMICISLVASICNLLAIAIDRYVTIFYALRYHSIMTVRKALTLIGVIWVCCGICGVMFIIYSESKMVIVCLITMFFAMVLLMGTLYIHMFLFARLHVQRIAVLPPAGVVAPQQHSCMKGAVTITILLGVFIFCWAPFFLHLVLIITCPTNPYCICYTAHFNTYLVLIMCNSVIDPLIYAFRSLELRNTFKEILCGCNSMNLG
Assay Info: cell-based or functional assay
Square brackets hold non-standard residues; d marks the D form. Bip = N[C@@H](Cc1ccc(-c2ccccc2)cc1)C(=O)O; dPhe(4-I) = N[C@H](Cc1ccc(I)cc1)C(=O)O; 2Nal = N[C@@H](Cc1ccc2ccccc2c1)C(=O)O; d2Nal = N[C@H](Cc1ccc2ccccc2c1)C(=O)O; Bta = N[C@@H](Cc1csc2ccccc12)C(=O)O
Doc: threshold 40 % @ 100 µM (exclusive). Items with Agonist, % of NDP-MSH maximal response beneath it return Satisfied; others return Not satisfied.

Study these solved cases before continuing.
# Binder, Assigned Class
data = [
    ("Ac-HR[dPhe(4-I)][Bip]-NH2 [SKY4-48-3, Ac-His-Arg-(pI)DPhe-Bip-NH2]", "Not satisfied"),
    ("Ac-[2Nal]R[dPhe(4-I)][d2Nal]-NH2 [SKY4-48-48, Ac-Nal(2')-Arg-(pI)DPhe-DNal(2')-NH2]", "Satisfied"),
    ("Ac-[d2Nal]R[dPhe(4-I)][Bip]-NH2 [SKY5-146-2, Ac-DNal(2')-Arg-(pI)DPhe-Bip-NH2]", "Satisfied"),
]

Input: Could you please tell me whether Agonist, % of NDP-MSH maximal response recorded for Ac-[Bta]R[dPhe(4-I)][Bip]-NH2 [SKY4-48-5, Ac-3Bal-Arg-(pI)DPhe-Bip-NH2] is less than 40 % @ 100 µM?
Output: Not satisfied

Input: Can you handle Ac-[Bta]R[dPhe(4-I)]F-NH2 (SMILES CC(=O)N[C@@H](Cc1csc2ccccc12)C(=O)N[C@@H](CCCNC(=N)N)C(=O)N[C@H](Cc1ccc(I)cc1)C(=O)N[C@@H](Cc1ccccc1)C(N)=O) [SKY5-146-4, Ac-3Bal-Arg-(pI)DPhe-Phe-NH2] next?
Output: Satisfied

Input: Moving on to the next binder: Ac-FR[dPhe(4-I)][Bip]-NH2 [SKY4-48-7, Ac-Phe-Arg-(pI)DPhe-Bip-NH2]
Output: Satisfied
